target: dopamine D2 receptor (Homo sapiens (Human)); experiment: Secondary radioligand binding assay, D2; conditions: average of at least two experiments
Sequence (P14416 whole entry, species assumed): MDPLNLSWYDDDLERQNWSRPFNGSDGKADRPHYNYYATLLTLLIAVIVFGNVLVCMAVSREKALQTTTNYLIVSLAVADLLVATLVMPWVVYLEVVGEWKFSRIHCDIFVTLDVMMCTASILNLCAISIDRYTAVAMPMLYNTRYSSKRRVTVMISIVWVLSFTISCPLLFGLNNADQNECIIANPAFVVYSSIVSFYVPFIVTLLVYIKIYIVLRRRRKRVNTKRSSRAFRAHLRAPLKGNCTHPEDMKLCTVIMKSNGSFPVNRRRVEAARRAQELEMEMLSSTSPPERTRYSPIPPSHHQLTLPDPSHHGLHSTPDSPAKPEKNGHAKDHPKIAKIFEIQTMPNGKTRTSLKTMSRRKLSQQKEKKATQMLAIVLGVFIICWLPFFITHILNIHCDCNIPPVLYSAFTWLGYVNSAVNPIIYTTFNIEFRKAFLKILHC
Kindly supply the reported pKi values for the records listed here.
Give bare numbers, as −log10 of the molar value.

Below is a list of compounds. For each, state its recorded pKi.
1. COc1cccc(OC[C@@H]2CN(CCN3CCc4ccccc43)CCO2)c1 [Compound 25s]
2. c1ccc(OC[C@@H]2CN(CCN3CCc4ccccc43)CCO2)cc1 [Compound 19s]

1: 5.00; 2: 6.47

Need pKi, item Clc1cccc(OC[C@@H]2CN(CCN3CCc4ccccc43)CCO2)c1 [Compound 23s]
5.72

###

molecular target: dopamine D5 receptor (Homo sapiens (Human)); assay: Secondary radioligand binding assay, D5; set-up: key: “—” indicates that a binding interaction was not detected; conditions: average of at least two experiments
Sequence (P21918 whole entry): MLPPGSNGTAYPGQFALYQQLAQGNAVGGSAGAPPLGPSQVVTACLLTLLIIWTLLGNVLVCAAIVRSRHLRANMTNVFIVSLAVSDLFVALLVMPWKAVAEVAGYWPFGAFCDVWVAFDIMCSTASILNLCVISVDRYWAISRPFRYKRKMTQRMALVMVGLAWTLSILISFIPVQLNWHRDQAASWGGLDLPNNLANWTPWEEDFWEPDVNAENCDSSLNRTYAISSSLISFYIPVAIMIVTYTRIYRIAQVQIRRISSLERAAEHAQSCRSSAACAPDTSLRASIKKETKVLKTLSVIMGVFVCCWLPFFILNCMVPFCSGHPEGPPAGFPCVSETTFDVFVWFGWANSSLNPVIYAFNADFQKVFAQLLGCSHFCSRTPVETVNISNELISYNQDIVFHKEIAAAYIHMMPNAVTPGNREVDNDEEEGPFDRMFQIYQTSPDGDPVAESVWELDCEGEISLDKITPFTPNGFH
parameterMeasured: Ki D5

molecule="Cc1ccccc1OC[C@H]1CN(CC(=O)N2c3ccccc3CC2C)CCO1 (some centres unmarked)" testedtarget="dopamine D5 receptor (Homo sapiens (Human))" measurement=—
molecule="O=C(CN1CCO[C@H](COc2cccc(Cl)c2)C1)N1CCc2ccccc21 [Compound 22s]" testedtarget="dopamine D5 receptor (Homo sapiens (Human))" measurement=—
molecule="Cc1ccc(OC[C@@H]2CN(CCN3CCc4ccccc43)CCO2)cn1 [Compound 28s]" testedtarget="dopamine D5 receptor (Homo sapiens (Human))" measurement=—
molecule="CC1Cc2ccccc2N1C(=O)CN1CCO[C@@H](COc2ccccn2)C1 (some centres unmarked)" testedtarget="dopamine D5 receptor (Homo sapiens (Human))" measurement=—

Kindly review the next molecule as well.
Need Ki D5, item O=C(CN1CCO[C@@H](COc2cccc(Cl)c2)C1)N1CCc2ccccc21 [Compound 22r]
—
